# experimental-system: T1, recombinant fibronectin domain ED-B (His)6 (human, UniProt P02751 1266-1356)
# T1 construct: domain: ED-B; Produced by standard procedures; immobilised on ELISA plates or on the BIAcore chip; also called recombinant ED-B; human ED-B
# procedure-text: SPR (BIAcore), ED-B immobilised on chip (about 100 RU), Fab in flow
Kd: recorded values
Note: unit nM is implicit; provide only the numeric part.

Worked examples, 3 binders total:
Given MOR03243 (Fab, V domains shown, Fab, H-CDR2 derivative of MOR03055) VH: QVQLQESGPGLVKPGETLSLTCTVSGGSISSYYWSWIRQAPGKGLEWIGEIHRGGYTQYNPSLKSRVTISVDTSKNQFSLKLSSVTAADTAVYYCARFFDVWGQGTLVTVSS VL: DIVLTQPPSVSGAPGQRVTISCSGSSSNIGSNTVRWYQQLPGTAPKLLIYSNNKRPSGVPDRFSGSKSGTSASLAITGLQSEDEADYYCQAWTRAHRYPVFGGGTKLTVLG , state its recorded Kd.
0.7

Quick check: Kd of MOR03245 (Fab, V domains shown, Fab, H-CDR2 derivative of MOR03069) VH: QVQLQESGPGLVKPGETLSLTCTVSGGSISSYYWSWIRQAPGKGLEWIGVIHKWGFTNYNPSLKSRVTISVDTSKNQFSLKLSSVTAADTAVYYCARFFDVWGQGTLVTVSS VL: DIVLTQPPSVSGAPGQRVTISCSGSSSNIGSNTVRWYQQLPGTAPKLLIYSNNKRPSGVPDRFSGSKSGTSASLAITGLQSEDEADYYCWTGMSYHFVFGGGTKLTVLG ?
0.7

// Kd lookup, key: MOR03257 (Fab, V domains shown, Fab, H-CDR2 derivative of MOR03062) VH: QVQLVESGGGLVQPGGSLRLSCAASGFTFSSYGMHWVRQAPGKGLEWVSVISNRGNYIYYADSVKGRFTISRDNSKNTLYLQMNSLRAEDTAVYYCARNKVGFDVWGQGTLVTVSS VL: DIALTQPASVSGSPGQSITISCTGTSSDGGGYNTVSWYQQHPGKAPKLMIYYVHKRPSGVSNRFSGSKSGNTASLTISGLQAEDEADYYCQSWDLSVHQVVFGGGTKLTVLG
0.08

Further cases:
Could you share which Kd value was measured for MOR03253 (Fab, V domains shown, Fab, H-CDR2 derivative) VH: QVQLVESGGGLVQPGGSLRLSCAASGFTFSSYGMHWVRQAPGKGLEWVSVISNMGFEIYYADSVKGRFTISRDNSKNTLYLQMNSLRAEDTAVYYCARNKVGFDVWGQGTLVTVSS VL: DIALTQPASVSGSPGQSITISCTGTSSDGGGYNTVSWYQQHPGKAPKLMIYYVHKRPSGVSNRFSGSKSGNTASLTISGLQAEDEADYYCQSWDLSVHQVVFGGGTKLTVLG ?
0.13
